System: Klebsiella pneumoniae
method-description: Antibacterial activity against Klebsiella pneumoniae after 18 hrs
Type: functional, organism-based
pIC50: −log10 of the molar value.
measurement-kind: pIC50

query: Endpoint output: pIC50 of CCCCCCCCCCCC(=O)O[C@H]1[C@@H](O[C@@]2(CO)O[C@@H](CO)[C@H](O)[C@H]2O)O[C@H](CO)[C@@H](O)[C@@H]1OC(=O)C=C(C)C [PHYSALOSIDE A] . Value?
result: < 3.38

----------
method-description: Selectivity ratio of IC50 for human THP1 cells to IC50 for Streptococcus pneumoniae
Type: ADME, cell-based, THP-1
measurement-kind: selectivity ratio

query: Bench note: what selectivity ratio did CCCCCCCCCCCC(=O)O[C@H]1[C@@H](O[C@@]2(CO)O[C@@H](CO)[C@H](O)[C@H]2O)O[C@H](CO)[C@@H](O)[C@@H]1OC(=O)C=C(C)C [PHYSALOSIDE A] show?
result: > 10
